- Study System: human MGL from HeLa cells (Homo sapiens)
- Construct: combining endogenously expressed MGL from HeLa cells with test compounds; endogenous in cells; host or cells: HeLa cells / cell homogenates
- Sequence (Q99685 whole entry): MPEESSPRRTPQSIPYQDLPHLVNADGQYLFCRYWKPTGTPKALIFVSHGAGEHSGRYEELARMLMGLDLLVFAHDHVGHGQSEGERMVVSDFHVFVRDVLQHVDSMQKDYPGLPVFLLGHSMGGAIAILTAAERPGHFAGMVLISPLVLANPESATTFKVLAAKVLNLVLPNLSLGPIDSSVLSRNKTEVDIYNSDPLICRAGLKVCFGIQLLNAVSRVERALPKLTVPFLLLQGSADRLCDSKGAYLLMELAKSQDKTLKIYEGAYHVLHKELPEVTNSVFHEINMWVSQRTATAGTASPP
- Test Summary: In vitro MGL activity assay: [glycerol-1,3-3H]-oleyl glycerol cleavage by MGL from HeLa cells
- Type: biochemical
- Settings: 300 nM [Glycerol-1,3-3H]-oleyl glycerol, one hour
Readout Name: IC50 (nM)

chemical_structure=Cc1nccn2nc(C3CC3)c(C(=O)N3CCc4c(nn(C)c4-c4cc(F)c(F)c(F)c4)[C@@H]3C)c12 meas_value=392
chemical_structure=Cc1ccnn2nc(C3CC3)c(C(=O)N3CCc4c(nn(C)c4-c4cc(F)c(F)c(F)c4)[C@@H]3C)c12 meas_value=2380

I = Cc1nn2c(c1C(=O)N1CCc3c(nn(C)c3-c3cc(F)c(F)c(F)c3)[C@@H]1C)COC(C)(C)C2
II = Cc1cc(F)cc(-c2c3c(nn2C)[C@H](C)N(C(=O)c2ccc4ncccc4c2)CC3)c1
So which one has the bigger IC50 here, I or II ? Answer by quoting the chosen item's label.
I
(I: 803 nM, II: 6.58 nM)
